MEASURED_TARGET: Arf-GAP with SH3 domain, ANK repeat and PH domain-containing protein 1 (Homo sapiens) (UniProt Q9ULH1)
Sequence (Q9ULH1 325-724 limits assumed): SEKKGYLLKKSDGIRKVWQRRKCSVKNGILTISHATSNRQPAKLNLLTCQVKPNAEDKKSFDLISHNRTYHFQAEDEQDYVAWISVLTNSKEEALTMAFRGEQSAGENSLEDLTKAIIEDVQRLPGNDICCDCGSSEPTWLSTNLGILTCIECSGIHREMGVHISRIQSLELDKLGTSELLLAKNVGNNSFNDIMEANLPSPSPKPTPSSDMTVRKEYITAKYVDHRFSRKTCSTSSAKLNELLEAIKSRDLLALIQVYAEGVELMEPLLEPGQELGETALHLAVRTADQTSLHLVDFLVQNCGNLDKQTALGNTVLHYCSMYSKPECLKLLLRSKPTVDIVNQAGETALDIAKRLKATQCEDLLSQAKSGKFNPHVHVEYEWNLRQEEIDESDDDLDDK
TEST_DETAILS: inhibitors of human ASAP1 ArfGAP activity, primary screen, biochemical, fluorescence polarization (AID 624377);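 further: 0% = vehicle with enzyme and substrate and 100% = no enzyme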
ASSAY_SETUP: ASAP1-stimulated ARF1 GTP hydrolysis, GDP FP detection; at 16.5 µM; stronger effect = higher value
Screen size: about 360,000 compounds; about 680 (0.19%) were called active. The entries come from a sample that favours actives as a whole.
Can you tell me inhibition for the items I'm about to list?
Answer in %, number only, no unit symbol.

Q: # get_value(readout='inhibition', item= O=C(O)Cn1cnc2c(NCc3ccccc3)ncnc21 )
Result: -0.64

Q: Form field: reported inhibition of O=C1[C@@H](c2ccccc2)[C@@H](c2ccccc2)N1c1ccccc1
Result: -13

Q: What does the record list as inhibition for Cc1cccc(-n2ncc(Cl)c(Cl)c2=O)c1 ?
Result: 24.7

Q: Look up inhibition: CCCN1C(=O)c2[nH]nc(-c3ccccc3)c2C1c1ccccc1 (stereo not drawn)
Result: 0.41

Q: What value of measured inhibition is listed for CC(C)[C@@H](C)/C=C/[C@@H](C)[C@H]1CC[C@@H]2[C@]1(C)CCC1[C@]23C=C[C@]2(C[C@@H](O)CC[C@]12C)N(c1ccc([N+](=O)[O-])cn1)O3 (stereo partly drawn) ?
Result: 7.77

Q: inhibition for COC(=O)[C@]12C[C@H](CC(=O)NCc3cccc(C(F)(F)F)c3)C(=O)N(Cc3ccc4c(c3)OCO4)C1=C[C@H](COCc1ccccc1)O[C@@H]2C ?
Result: 2.38

Q: Return reported inhibition; argument: Nc1c(-c2cccc(Cl)c2)cnn1-c1cccc([N+](=O)[O-])c1
Result: 3.08

Q: So what does the record say about inhibition for Cc1ccc2nc(CN(C)C(=O)[C@@H](Cc3ccccc3)NC(=O)[C@H]3O[C@@H](n4ccc(=O)[nH]c4=O)[C@H](O)[C@@H]3O)[nH]c2c1 ?
Result: -16.7
